// values below are reported protein stability index
B1: TRIM55 (parent)
chain: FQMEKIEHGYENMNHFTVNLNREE

- Variants of: B1
- experimentSummary: protein stability index of a GFP-peptide fusion (GPS, HEK-293T) (PSI 1-6); higher = more stable;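 further: lentivirally expressed fusions sorted by FACS into six bins by GFP to DsRed ratio, PSI derived from sequencing read proportions per bin multiplied by bin number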
- appliedConditions: c terminus: a fixed tail appended
No unit in the answer, only the number.

Some solved entries appear below for comparison.
[
  {
    "residueSequence": "FQMEKIEYGYENMNHFTVNLNREE [H8Y]",
    "protein stability index": 3.03
  },
  {
    "residueSequence": "FQMEKIEHGFENMNHFTVNLNREE [Y10F]",
    "protein stability index": 3.02
  }
]

(Q) # protein stability index lookup, item FQMEKVEHGYENMNHFTVNLNREE [I6V]
(A) 3

(Q) Given FQMEKIEHGYENMNHFTLNLNREE [V18L] , state its recorded protein stability index.
(A) 3.08

(Q) Returns the measured protein stability index for the input variant. Input: FQMEKIEHGYENSNHFTVNLNREE [M13S]
(A) 3.04

(Q) Would you mind telling me what protein stability index value was observed for FQMEKIEHGYENMNHFTINLNREE [V18I] ?
(A) 2.94

(Q) protein stability index lookup needed for FQMEKIESGYENMNHFTVNLNREE [H8S] , thanks.
(A) 3.02

(Q) So what does the record say about protein stability index for FQMEKIEHGYENMNHFTVNRNREE [L20R] ?
(A) 3.01
